Data origin, for the record: paper PMC6161027

ASSAY_SUMMARY: Plasma and liver concentrations of modulators after i.v. infusion in rats
Type: in vivo
RUN_CONDITIONS: Sprague-Dawley, rat, plasma, iv; 1 mg/kg i.v.
MEASURED_PROPERTY: Cmax (µM)

INSERT INTO measurements (compound, unit_string, recorded_result) VALUES
  ('CC(=O)[C@H]1CC[C@H]2[C@@H]3CCC4=CC(=O)CC[C@]4(C)[C@H]3CC[C@]12C [Progesterone, progesterone]', 'µM', 165);

----------
ASSAY_SUMMARY: Plasma and liver concentrations of modulators after i.v. infusion in rats
Type: in vivo
RUN_CONDITIONS: Sprague-Dawley, rat, intravenous; 1 mg/kg i.v., liver homogenate, LC-MS/MS; read-out: Liver Total Concentrations
MEASURED_PROPERTY: concentration at 2 h (µM)

INSERT INTO measurements (given_smiles, recorded_result) VALUES
  ('CC(=O)[C@H]1CC[C@H]2[C@@H]3CCC4=CC(=O)CC[C@]4(C)[C@H]3CC[C@]12C', 197);
